Tested on: CAL-39 (Other Solid Carcinomas);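 also: after 72 h of two-drug dosing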
PROTOCOL_DESCRIPTION: Bliss excess, mean over the matrix (fraction); higher = more synergy
In this section, each of the molecules is paired with its reported Bliss excess.
ATTRIBUTE_MEASURED: Bliss excess

MOLECULE	REPORTED_VALUE
CN(C)CCCOc1ccc(-c2ccc3ncc4c(c3c2)n(C2CCOCC2)c(=O)n4C)cn1 [AZD0156] + C=CCn1c(=O)c2cnc(Nc3ccc(N4CCN(C)CC4)cc3)nc2n1-c1cccc(C(C)(C)O)n1 [AZD1775] (first compound max 1 µM, partner max 1 µM)	-0.0326
Cc1cc2ncnn2cc1Nc1ncc2c(n1)n(C1CCOCC1)c(=O)n2C [AZD7648] + C[C@@H]1COCCN1C2=NC(=NC(=C2)C3(CC3)[S@](=N)(=O)C)C4=C5C=CNC5=NC=C4 [AZD6738] (first compound max 10 µM, 7x7, partner max 10 µM)	0.0081
CCN(CCO)CCCOc1ccc2c(Nc3cc(CC(=O)Nc4cccc(F)c4)[nH]n3)ncnc2c1 [AZD2811] + C=CCn1c(=O)c2cnc(Nc3ccc(N4CCN(C)CC4)cc3)nc2n1-c1cccc(C(C)(C)O)n1 [AZD1775] (first compound max 1 µM, partner max 1 µM)	-0.0078
Cn1cnc2c(F)c(Nc3ccc(Br)cc3Cl)c(C(=O)NOCCO)cc21 [Selumetinib] + CC(C)n1c(=O)n(C)c2cnc3cc(F)c(-c4ccc(OCCCN5CCCCC5)nc4)cc3c21 [AZD1390] (first compound max 10 µM, 7x7, partner max 0.3 µM)	0.0025
